Would you kindly list IC50 for each of these compounds?
biological target: AmpC (Escherichia coli, UniProt P00811); experiment: β-lactamase inhibition, nitrocefin hydrolysis
Sequence (P00811 20-377): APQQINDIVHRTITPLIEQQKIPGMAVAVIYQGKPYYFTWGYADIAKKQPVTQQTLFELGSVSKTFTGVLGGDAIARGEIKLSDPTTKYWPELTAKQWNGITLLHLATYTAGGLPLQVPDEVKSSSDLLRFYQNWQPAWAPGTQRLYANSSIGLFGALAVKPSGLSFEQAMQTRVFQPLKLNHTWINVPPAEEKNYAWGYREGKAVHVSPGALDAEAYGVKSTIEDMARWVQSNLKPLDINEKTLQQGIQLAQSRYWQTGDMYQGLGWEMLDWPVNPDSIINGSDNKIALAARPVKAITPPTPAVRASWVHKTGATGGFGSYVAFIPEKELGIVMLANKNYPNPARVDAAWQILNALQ

Req: Find the recorded IC50 belonging to O=c1c(OCCC2CC2)c(-c2ccc(F)c(F)c2)oc2cc(O)cc(O)c12 and report it.
Resp: > 50 µM

Req: Item: CC(C)(C)C(=O)OCOc1c(-c2ccc(F)c(F)c2)oc2cc(O)cc(O)c2c1=O
Resp: 25.4 µM

Req: // same read-out, input: O=c1c(OCCOCCOCCO)c(-c2ccc(F)c(F)c2)oc2cc(O)cc(O)c12
Resp: > 50 µM

Req: And then CC(C)(C)c1ccc(COc2c(-c3ccc(F)c(F)c3)oc3cc(O)cc(O)c3c2=O)cc1 , what is it?
Resp: > 50 µM

Req: Same for O=c1c(OCCC2CCOCC2)c(-c2ccc(F)c(F)c2)oc2cc(O)cc(O)c12
Resp: > 50 µM

Req: # iterate: O=c1c(OCCN2CCCC2)c(-c2ccc(F)c(F)c2)oc2cc(O)cc(O)c12
Resp: > 50 µM

Req: Would you mind doing O=c1c(OCC2CCCC2)c(-c2ccc(F)c(F)c2)oc2cc(O)cc(O)c12 as well?
Resp: > 50 µM

Req: What about CN1CCCC1CCOc1c(-c2ccc(F)c(F)c2)oc2cc(O)cc(O)c2c1=O (stereo not drawn) ?
Resp: > 50 µM

Req: Next entry: CC(C)c1ccc(COc2c(-c3ccc(F)c(F)c3)oc3cc(O)cc(O)c3c2=O)cc1
Resp: > 50 µM

Req: Same for O=c1c(OCCC2CCCCC2)c(-c2ccc(F)c(F)c2)oc2cc(O)cc(O)c12
Resp: 15.3 µM

Req: Now consider O=c1c(OCCCC2CCCC2)c(-c2ccc(F)c(F)c2)oc2cc(O)cc(O)c12 .
Resp: > 50 µM

Req: Please answer likewise for O=c1c(OCCN2CCNCC2)c(-c2ccc(F)c(F)c2)oc2cc(O)cc(O)c12
Resp: > 50 µM
